Data origin: patent US20180250395A1

Assay System: T1, Cyno CD47 ECD protein, His-tagged, monomer (cyno)
T1 construct: extracellular domain; also called cynomolgus CD47
Assay Details: ProteOn SPR; mAb captured, ECD monomer as analyte
Can you tell me pKd for the items I'm about to list?
Just the number, please; pKd means minus log10 of the concentration in mol/L.

Q. Look up pKd for this binder: C47B236 (antibody, V domains shown, human IgG2sigma/kappa) VH: EVQLVQSGAEVKKPGESLKISCKGSGYSFKDDWIGWVRQMPGKGLEWMGIIYPGDSDTRYSPSFQGQVTISADKSISTAYLQWSSLKASDTAVYYCARVGRFASHQLDYWGQGTLVTVSS VL: EIVLTQSPATLSLSPGERATLSCRASQSVNKALAWYQQKPGQAPRLLIYGASNRATGIPARFSGSGSGTDFTLTISSLEPEDFAVYYCQQGKGWPFTFGQGTKVEIK
A. 7.84

Q. Try C47B228 (antibody, V domains shown, human IgG2sigma/kappa) VH: EVQLVQSGAEVKKPGESLKISCKGSGYSFDDYWIGWVRQMPGKGLEWMGIIYPGDSDTRYSPSFQGQVTISADKSISTAYLQWSSLKASDTAVYYCARVGRFASHQLDYWGQGTLVTVSS VL: EIVLTQSPATLSLSPGERATLSCRASQSVSNRQAWYQQKPGQAPRLLIHSASNRATGIPARFSGSGSGTDFTLTISSLEPEDFAVYYCQQGRSWPFTFGQGTKVEIK next.
A. 8.60

Q. Try C47B227 (antibody, V domains shown, human IgG2sigma/kappa) VH: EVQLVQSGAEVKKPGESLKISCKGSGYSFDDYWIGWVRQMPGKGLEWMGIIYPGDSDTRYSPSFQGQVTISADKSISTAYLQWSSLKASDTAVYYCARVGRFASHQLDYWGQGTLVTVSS VL: EIVLTQSPATLSLSPGERATLSCRASQSVGSRLAWYQQKPGQAPRLLIYWASTRATGIPARFSGSGSGTDFTLTISSLEPEDFAVYYCQQGAYWPFTFGQGTKVEIK next.
A. 9.24
